- test_target: Prostaglandin G/H synthase 1 (Ovis aries) (UniProt P05979)
- Sequence (P05979 whole entry): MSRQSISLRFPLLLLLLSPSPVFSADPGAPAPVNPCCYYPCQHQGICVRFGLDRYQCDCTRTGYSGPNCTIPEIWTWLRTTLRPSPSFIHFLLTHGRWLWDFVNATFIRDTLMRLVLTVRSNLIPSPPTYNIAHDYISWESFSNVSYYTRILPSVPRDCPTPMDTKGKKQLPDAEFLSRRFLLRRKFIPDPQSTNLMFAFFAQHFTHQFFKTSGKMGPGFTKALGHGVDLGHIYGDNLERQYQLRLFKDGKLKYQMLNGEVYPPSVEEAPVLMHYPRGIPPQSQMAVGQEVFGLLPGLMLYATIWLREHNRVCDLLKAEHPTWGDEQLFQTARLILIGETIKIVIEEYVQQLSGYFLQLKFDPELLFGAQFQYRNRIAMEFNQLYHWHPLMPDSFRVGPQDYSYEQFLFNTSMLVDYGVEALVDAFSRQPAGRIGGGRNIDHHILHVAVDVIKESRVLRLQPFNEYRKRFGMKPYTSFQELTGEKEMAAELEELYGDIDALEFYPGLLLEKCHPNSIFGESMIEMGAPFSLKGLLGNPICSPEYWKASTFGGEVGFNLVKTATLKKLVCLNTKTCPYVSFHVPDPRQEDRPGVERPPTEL
- assay_info: Inhibition of COX1 in ovine thrombocyte at 10 uM relative to control
property_label: IP (%)

O=C(O)/C=C/c1c(-c2ccccc2)c(-c2ccccc2)c2n1CCC2 :: 17

a: O=C(O)/C=C/c1c(-c2ccc(Nc3cccc(C(F)(F)F)c3)cc2)c(-c2ccccc2)c2n1CCC2
b: O=C(O)/C=C/c1c(-c2ccc([S+]([O-])c3ccccc3)cc2)c(-c2ccccc2)c2n1CCC2 (stereo unspecified)
c: Nc1ccc(-c2c(-c3ccccc3)c3n(c2/C=C/C(=O)O)CCC3)cc1
d: O=C(O)/C=C/c1c(-c2ccc(S(=O)(=O)Cc3ccccc3)cc2)c(-c2ccccc2)c2n1CCC2
e: O=C(O)/C=C/c1c(-c2ccc([S+]([O-])Cc3ccccc3)cc2)c(-c2ccccc2)c2n1CCC2 (stereo unspecified)
IN: Arrange these 5 compounds in increasing order of IP. Write out the labels following the order that was asked for.
OUT: d, b, e, c, a
(d: 0%, b: 12%, e: 18%, c: 31%, a: 45%)
